Provenance of the data: patent US20240254222A1

Binding Activity [%] overview
- Assayed Target: T1, Pig Semaphorin3A-Sema Domain, TPP-20176 (pig, UniProt Q63548 21-569 (rat entry))
- T1 construct: produced inhouse
- T1 chain: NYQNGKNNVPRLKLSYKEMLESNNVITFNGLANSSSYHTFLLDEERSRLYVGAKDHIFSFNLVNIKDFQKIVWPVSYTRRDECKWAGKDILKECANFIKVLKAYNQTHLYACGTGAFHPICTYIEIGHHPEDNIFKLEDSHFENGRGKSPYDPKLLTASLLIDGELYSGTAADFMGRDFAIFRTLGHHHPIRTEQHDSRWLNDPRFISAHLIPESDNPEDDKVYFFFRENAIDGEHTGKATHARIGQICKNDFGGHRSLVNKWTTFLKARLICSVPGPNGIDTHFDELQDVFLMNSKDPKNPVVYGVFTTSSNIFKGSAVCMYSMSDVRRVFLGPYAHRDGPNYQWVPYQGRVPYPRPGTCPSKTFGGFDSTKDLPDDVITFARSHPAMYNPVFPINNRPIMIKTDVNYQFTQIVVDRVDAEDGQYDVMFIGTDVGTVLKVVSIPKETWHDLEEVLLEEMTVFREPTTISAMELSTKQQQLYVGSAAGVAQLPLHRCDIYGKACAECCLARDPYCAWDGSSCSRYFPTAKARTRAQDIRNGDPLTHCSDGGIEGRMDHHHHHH
- Test Description: SPR, captured antibody, Sema3A domain analyte
Note: unit % is implicit; provide only the numeric part.

Below, each entry is followed by its recorded Binding Activity [%] result.
- Binder: "TPP-17755 (antibody, human IgG1, lambda, V domains shown, also called Samsung; Samsung Prior Art F11) VH: EVQLLESGGGLVQTGGSLRLSCAASGFTFSDYAMSWVRQAPGKGLEWVSWIYYDSGSKYYADSVKGRFTISRDNSKNTLYLQMNSLRAEDTAVYYCAKLNGDFDYWGQGTLVTVSS VL: QSVLTQPPSASGTPGQRVTISCSGSSSNIGNNDVSWYQQLPGTAPKLLIYADSHRPSGVPDRFSGSKSGTSASLAISGLRSEDEADYYCGAWDSSLSGYVFGGGTKLTVLG"
  Value Observed: 60
- Binder: "TPP-30789 (antibody, human IgG1, kappa, V domains shown, prior art, WO 2020/225400; also called BI clone II; Böhringer (BI) Clone II) VH: EVQLVESGGGLVQPGGSLRLSCAASGFPFSSYYMSWVRQAPGKGLEWVSTIIKSGGYAYYPDSVKDRFTISRDNSKNTLYLQMSSLRAEDTAVYYCVRGGQGAMDYWGQGTTVTVSS VL: EIVLTQSPATLSLSPGERATLSCRASQSIGDYLHWYQQKPGQAPRLLIKYASQSISGIPARFSGSGSGTDFTLTITSLEPEDFAVYYCQQGYSFPYTFGGGTKLEIKR"
  Value Observed: 103
- Binder: "TPP-30791 (antibody, human IgG1, kappa, V domains shown, prior art, WO 2020/225400; also called BI clone IV; Böhringer (BI) Clone IV) VH: EVQLVESGGGLLQLGGSLRLSCAASGFTFSSYYMSWVRQAPGKGLEWVSTIIKSGGYAYYPDSVKDRFTISRDNSKNTLNLQMNSLRAEDTAVYYCVKGGQGAMDYWGQGTTVTVSS VL: EIVLTQSPATLSLSPGERATLSCRASQSIGDYLHWYQQKPGQAPRLLIKYASQSISGIPARFSGSGSGTDFTLTISSLEPEDFAVYYCQQGYSFPYTFGGGTKLEIKR"
  Value Observed: 105
- Binder: "TPP-15374 (antibody, human IgG1, lambda, V domains shown, human IgG1; also called IgG1, hit from panning; parental mAb) VH: EVQLLESGGGLVQPGGSLRLSCAASGFTFSSYEMNWVRQAPGKGLEWVSGISWNSGSIGYADSVKGRFTISRDNSKNTLYLQMNSLRAEDTAVYYCARSGYSSSWFDPDFDYWGQGTLVTVSS VL: QSVLTQPPSASGTPGQRVTISCTGSSSNIGAGYDVHWYQQLPGTAPKLLIYGNSNRPSGVPDRFSGSKSGTSASLAISGLRSEDEADYYCSSYAGSNPYVVFGGGTKLTVLG"
  Value Observed: 103
- Binder: "TPP-30788 (antibody, human IgG1, kappa, V domains shown, prior art, WO 2020/225400; also called BI clone I; Böhringer (BI) Clone I) VH: EVQLVESGGGLVQPGGSLRLSCAASGFTFSSYYMSWVRQAPGKGLEWVSTIIKSGGYAYYPDSVKDRFTISRDNSKNTLYLQMSSLRAEDTAVYYCVRGGQGAMDYWGQGTTVTVSS VL: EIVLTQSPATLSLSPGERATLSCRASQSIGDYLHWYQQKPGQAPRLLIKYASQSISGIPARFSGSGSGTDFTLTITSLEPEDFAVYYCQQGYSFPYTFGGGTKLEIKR"
  Value Observed: 107

// Binding Activity [%] value for TPP-30790 (antibody, human IgG1, kappa, V domains shown, prior art, WO 2020/225400; also called BI clone III; Böhringer (BI) Clone III) VH: EVQLVESGGGLVQLGGSLRLSCAASGFTFSSYYMSWVRQAPGKGLEWVSTIIKSGGYAYYPDSVKDRFTISRDNSKNTLYLQMNSLRAEDTAVYYCVKGGQGAMDYWGQGTTVTVSS VL: EIVLTQSPATLSLSPGERATLSCRASQSIGDYLHWYQQKPGQAPRLLIYYASQSISGIPARFSGSGSGTDFTLTISSLEPEDFAVYYCQQGYSFPYTFGGGTKLEIKR : 92
